test system: Streptococcus salivarius; assay: growth AUC relative to DMSO control (median of replicates) (fraction); higher = more growth (less inhibition), active = hit call of the paper; conditions: 20 µM; 24 h
measured attribute: growth AUC
Write the value as a bare number.

What does the data say about its growth AUC? Entry: Cc1cccc(C)c1N(CCSCC(O)C(=O)[O-])C(=O)CO.[Na+] (centres undefined)
0.97

Give the measured growth AUC of COC(=O)C(C)Oc1ccc(Cl)cc1C (centres undefined) .
0.988

Fill in: growth AUC of CCc1cccc(CC)c1N(COC)C(=O)C(=O)O is ___
1.02

Request the reported growth AUC associated with CCSC(=O)COc1ccc(Cl)cc1C
0.915

Value lookup for growth AUC; key = CCNc1nc(Cl)nc(N(CC)CC)n1
1.02

Which growth AUC is listed for FC(F)(F)/N=C1\SC(=Nc2ccccc2)N(c2ccccc2)\C1=N\C(F)(F)F ?
0.946

May I ask what growth AUC has been recorded for COC(=O)COc1ccc(Cl)cc1C ?
1.01

Which growth AUC is listed for COC(=O)C(C)Oc1ccc(Oc2ncc(C(F)(F)F)cc2Cl)cc1 (centres undefined) ?
0.954

Which growth AUC value is on record for c1ccc2cc3c(ccc4ccccc43)cc2c1 ?
0.962

Entry ClC(COCC(Cl)C(Cl)(Cl)Cl)C(Cl)(Cl)Cl (centres undefined) : reported growth AUC = ?
1.02

Looking for the measured growth AUC of C=CCc1ccc(OC)c(OC)c1 , can you help?
1.02

Given the compound CC(C)(c1cc(Br)c(O)c(Br)c1)c1cc(Br)c(O)c(Br)c1 , what is its reported growth AUC?
0.144

Reported growth AUC for CSc1nnc(C(C)(C)C)c(=O)n1/N=C/C(C)C : what is it?
1

Item CCOC(=O)C1=NN(c2ccc(Cl)cc2Cl)C(C)(C(=O)OCC)C1 (centres undefined) has what recorded growth AUC?
0.994

Param item = c1cc2ccc3ccc4ccc5cccc6c(c1)c2c3c4c56 ; retrieve measured growth AUC.
1.02

May I ask what growth AUC has been recorded for Cc1nc(C(F)(F)F)c(C(=O)Nc2c(Br)cc(OC(F)(F)F)cc2Br)s1 ?
0.972

Which growth AUC value belongs to CC1(C)C(=O)Oc2ccc(OS(C)(=O)=O)cc21 ?
1.02

Name the recorded growth AUC for CON(C(=O)c1cc(C)oc1C)C1CCCCC1 .
0.989

Would you mind telling me what growth AUC value was observed for O=C1NCC[n+]2ccccc21.[Br-] ?
0.987

Which growth AUC is reported for this compound? CCCCOCN(C(=O)CS(=O)(=O)[O-])c1c(CC)cccc1CC.[Na+]
0.97

What value of growth AUC has been recorded for this entry: CC(=O)Nc1cc(NS(=O)(=O)C(F)(F)F)c(C)cc1C
1

growth AUC lookup needed for COC1CCC2(CC1)NC(=O)C(O)(c1cc(C)ccc1C)C2=O (centres undefined) , thanks.
1.01

// lookup growth AUC for CCCCOC(=O)COc1ccc(Cl)cc1Cl
1.01

For O=[N+](Nc1ccccc1)c1ccccc1 , what is its reported growth AUC?
1.06

---

test system: Bacteroides caccae; test: growth AUC relative to DMSO control (median of replicates) (fraction); higher = more growth (less inhibition), active = hit call of the paper; conditions: 20 µM; 24 h
# growth AUC >= 1 gives yes (1), anything below gives no (0)

Does the reported growth AUC for O=S(=O)(Oc1ccc(Cl)cc1Cl)c1ccccc1 fall at or above the 1 mark?
no (0)

Is growth AUC for CC(C)NS(=O)(=O)NC(=O)c1cc(-n2c(=O)cc(C(F)(F)F)[nH]c2=O)c(F)cc1Cl at or above 1?
yes (1)

Can CSC(=O)c1cccc2nnsc12 be said to have growth AUC at or above 1?
yes (1)

# bool: growth AUC of CCCCCCC(C)OC(=O)COc1nc(F)c(Cl)c(N)c1Cl (stereo not drawn) >= 1
no (0)

Record CC(=O)Nc1cc(NS(=O)(=O)C(F)(F)F)c(C)cc1C ; criterion: growth AUC no lower than 1. Met?
yes (1)

API: above_or_equal(metric=growth AUC, cutoff=1) for item Cc1nn(C)c(OCC(=O)c2ccccc2)c1C(=O)c1ccc(Cl)cc1Cl
no (0)

Exam item: decide whether the reported growth AUC for CCOC(=O)C1=NOC(c2ccccc2)(c2ccccc2)C1 is at least 1.
yes (1)

For this molecule, is measured growth AUC 1 or higher? O=S(Cc1ccc(Cl)cc1)c1ccc(Cl)cc1 (stereo not drawn)
no (0)

# bool: growth AUC of CC(C)COC(=O)COc1cc(Cl)c(Cl)cc1Cl >= 1
no (0)

Would you say Cl.NCCO/C=C/[C@H](N)C(=O)O shows growth AUC at minimum 1?
no (0)

# check: growth AUC of CCOc1ccc(C2(C(=O)OC(C#N)c3cccc(Oc4ccccc4)c3)CC2(Cl)Cl)cc1 (stereo not drawn) is greater than or equal to 1
no (0)

---

tested on: Coprococcus comes; assay: growth AUC relative to DMSO control (median of replicates) (fraction); higher = more growth (less inhibition), active = hit call of the paper; conditions: 20 µM; 24 h;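 active = AUC reduced over 20% with Padj below 0.05 in at least 2 of 3 replicates; inactive = otherwise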
One label from this list, please: active, inactive

Lab log entry: CC(C)OC(=O)[C@@H](C)N(C(=O)c1ccccc1)c1ccc(F)c(Cl)c1 — outcome as called in the assay?
inactive

Recorded test call requested for Cc1nn(C)c(Oc2ccccc2)c1/C=N/OCc1ccc(C(=O)OC(C)(C)C)cc1
inactive

Which outcome was entered for the compound CC(C)c1cccc2c(=O)c3ccccc3sc12 in this test?
inactive

Answer briefly: the call reported for COc1cc(OC)nc(NC(=O)NS(=O)(=O)N(C)S(C)(=O)=O)n1 in this assay.
inactive

For CC(C)(c1cc(Br)c(O)c(Br)c1)c1cc(Br)c(O)c(Br)c1 , what call appears in the results of this test?
active

Per the records of this test, what outcome belongs to COC(=O)c1ccc(C)cc1C1=NC(C)(C(C)C)C(=O)N1 (racemic) ?
inactive

---

test system: Lactobacillus paracasei; test: growth AUC relative to DMSO control (median of replicates) (fraction); higher = more growth (less inhibition), active = hit call of the paper; conditions: 20 µM; 24 h
So basically, the class depends on measured growth AUC, and the ranges are c1 (below 0.9), c2 (0.9 to below 1), c3 (1 or more)

Exam item: assign CCOC(=O)/C(Cl)=C/c1cc(N2C(=O)C3=C(CCCC3)C2=O)ccc1Cl to the correct category.
c1

Lab log: CCOC(=O)C1CC(=O)C(=C(O)C2CC2)C(=O)C1 (configuration not stated) — assign growth AUC category
c2

For O=C(Oc1ccccc1)n1c(C(F)(F)F)nc2cc(Cl)c(Cl)cc21 , which growth AUC bin applies?
c1

Which growth AUC band matches CCOC(=O)NCCOc1ccc(Oc2ccccc2)cc1 ?
c2

Note: place this compound into its band. Item: CCc1cccc(C)c1NC(C)C(=O)O (racemic)
c2

In plain terms, what class is CCc1cccc(C)c1NC(=O)CS(=O)(=O)[O-].[Na+] ?
c2

Pick a category. Item: CCCCC(CC)CN1C(=O)C2C(C1=O)[C@H]1C=C[C@@H]2C1 (mixture of isomers)
c3

Which growth AUC category applies to CCCCOCCOC(=O)COc1nc(Cl)c(Cl)cc1Cl here?
c2

Exercise: read the entry CNC(=O)Sc1ccc(OS(C)(=O)=O)cc1 and state which class it falls under.
c2

Using the reported growth AUC, which band applies to S=C([S-])NCCNC(=S)[S-].S=C([S-])NCCNC(=S)[S-].[Mn+2].[Zn+2] ?
c3

---

tested on: Bacteroides dorei; test: growth AUC relative to DMSO control (median of replicates) (fraction); higher = more growth (less inhibition), active = hit call of the paper; details: 20 µM; 24 h
Please enter 1 (yes) where growth AUC is greater than or equal to 1, and 0 (no) where it is lower.

# bool: growth AUC of CCCOC(=O)c1ccc(C(=O)OCCC)nc1 >= 1
1 (yes)

Assess whether reported growth AUC for Cc1ccc(Cl)cc1 sits at 1 or higher.
1 (yes)

Evaluate CCOCCOC(=O)C(C)Oc1ccc(Oc2ncc(C(F)(F)F)cc2Cl)cc1 (stereo not drawn) : growth AUC at minimum 1?
0 (no)

Test whether the compound CC(C)(c1cc(Br)c(O)c(Br)c1)c1cc(Br)c(O)c(Br)c1 records growth AUC of 1 or higher.
0 (no)

Does growth AUC meet or surpass 1 for CCc1cccc(C)c1NC(=O)CS(=O)(=O)[O-].[Na+] ?
1 (yes)

hey, is growth AUC for this one >= 1? Cc1[nH]oc(=O)c1N=Nc1ccccc1Cl
0 (no)

Is the recorded value of growth AUC equal to or greater than 1 for this compound? CN(C)c1ccc(N=NS(=O)(=O)[O-])cc1.[Na+]
0 (no)

Hi team, for O=C(O)COc1cccc(Cl)c1Cl , is the recorded growth AUC at or above 1?
0 (no)

Reported growth AUC reaches at least 1 for CCOC(=O)[C@@H](C)Oc1ccc(Oc2cnc3cc(Cl)ccc3n2)cc1 ?
0 (no)

Confirm if growth AUC reported for the compound c1ccc2c(c1)Cc1ccccc1-2 is 1 or above.
1 (yes)

Identify whether the reported growth AUC of the following compound is 1 or greater: O=C(O)COc1cc(N2C(=O)C3=C(CCCC3)C2=O)c(F)cc1Cl
0 (no)

Does growth AUC meet or surpass 1 for CCOc1ccc(C2(C(=O)OC(C#N)c3cccc(Oc4ccccc4)c3)CC2(Cl)Cl)cc1 (stereo not drawn) ?
0 (no)

Please tell me: is the compound CC(C)N(C(=O)C(=O)O)c1ccccc1 at or over 1 in terms of growth AUC?
1 (yes)

Could you verify whether the entry [S] shows growth AUC of no less than 1?
1 (yes)

In plain terms: is recorded growth AUC at least 1 for CCCCOC(=O)C(C)Oc1ccc(Oc2ccc(C(F)(F)F)cn2)cc1 (stereo not drawn) ?
0 (no)

Would you say CN(C)C(=O)Nc1ccc(Oc2ccc(Cl)cc2)cc1 shows growth AUC at minimum 1?
0 (no)

Would you say COC(=O)CSc1cc(N=c2sc(=O)n3n2CCCC3)c(F)cc1Cl shows growth AUC at minimum 1?
0 (no)

Given the entry O=S(=O)(Oc1ccc(Cl)cc1)c1ccccc1 , answer whether its growth AUC meets or surpasses 1.
0 (no)

Would you say CCOC(=O)CSc1nc(C(C)(C)C)nn1C(=O)N(C)C shows growth AUC at minimum 1?
0 (no)

Assess whether reported growth AUC for NC(=O)C1CO1 (stereo not drawn) sits at 1 or higher.
0 (no)
